Test target: human 5-HT2C receptor (Homo sapiens, UniProt P28335)
Assay: 5-HT2C receptor-stimulated calcium mobilization (FLIPR) in CHO cells
Assay type: cell-based
Measurement setup: percentage of the response observed with a maximally effective concentration of 5-HT
Quantity measured: 5-HT2C Function Emax (%)
Give the number; % is assumed, so skip it.

The examples below pair each entry with its known result.
Cc1cccc(C)c1-c1cc(F)cc2c1OC(CN)C2 (single isomer, unassigned; (+)) [Example 228]; 70
NCC1Cc2cccc(-c3c(Cl)cccc3Cl)c2O1 (single isomer, unassigned; (+)); 80
Cc1c(Cl)cc(C(C)C)c2c1CC(CN)O2 (single isomer, unassigned; (+)); 80

Please examine the following record next.
For NCC1Cc2cccc(-c3cccc(F)c3)c2O1 (single isomer, unassigned; (+)) [Example 131] the compound record lists 5-HT2C Function Emax (%) as 90

====

Test target: human 5-HT2C receptor (Homo sapiens)
Assay: 5-HT2C receptor-stimulated calcium mobilization (FLIPR) in CHO cells
Assay type: cell-based
Measurement setup: percentage of the response observed with a maximally effective concentration of 5-HT
Entries and their 5-HT2C Function Emax (%) values follow.
The reply should consist of the numeric value with the unit placed after it.

The examples below pair each entry with its known result.
COc1ccc(-c2cccc3c2OC(CN)C3)cc1 (single isomer, unassigned; (+)) [Example 80]; 90%
NCC1Cc2cccc(-c3ccccc3Cl)c2O1 (single isomer, unassigned; (+)) [Example 130]; 80%
Cc1ccc(-c2cccc3c2OC(CN)C3)cc1 (single isomer, unassigned; (-)) [Example 72]; 85%

The molecule NCC1Cc2cccc(-c3cc(Cl)ccc3Cl)c2O1 (single isomer, unassigned; (+)) [Example 164] on human 5-HT2C receptor (Homo sapiens): 5-HT2C Function Emax (%) was 100%

The molecule NCC1Cc2cc(Cl)cc(-c3cccc(F)c3F)c2O1 (racemic) [Example 246] on human 5-HT2C receptor (Homo sapiens): 5-HT2C Function Emax (%) was 90%

The molecule NCC1Cc2cccc(-c3ccc(F)cc3F)c2O1 (single isomer, unassigned; (-)) [Example 148] on human 5-HT2C receptor (Homo sapiens): 5-HT2C Function Emax (%) was 70%

The molecule CNCC1Cc2cccc(-c3c(Cl)cccc3Cl)c2O1 (single isomer, unassigned; (+)) [Example 435] on human 5-HT2C receptor (Homo sapiens): 5-HT2C Function Emax (%) was 80%

====

Test target: human 5-HT2C receptor (Homo sapiens, UniProt P28335)
Assay: 5-HT2C receptor-stimulated calcium mobilization (FLIPR) in CHO cells;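 note: Fluo-3-AM fluorescence read on FLIPR every 1 s, agonist added after 10 baseline reads, response taken as peak minus lowest raw fluorescence count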
Format: cell-based
Measurement setup: percentage of the response observed with a maximally effective concentration of 5-HT
Entries and their 5-HT2C Function Emax (%) values follow.
Give the number; % is assumed, so skip it.

The examples below pair each entry with its known result.
Cc1ccccc1-c1cc(F)cc2c1OC(CN)C2 (single isomer, unassigned; (+)) [Example 105]; 95
COc1cccc(-c2cc(F)cc3c2OC(CN)C3)c1OC (single isomer, unassigned; (-)) [Example 213]; 100
CNCC1Cc2cc(OC)cc(-c3c(C)cccc3C)c2O1 (single isomer, unassigned; (+)); 80

For CNCC1Cc2cc(F)cc(-c3c(Cl)cccc3Cl)c2O1 (single isomer, unassigned; (+)) [Example 543] the molecule record lists 5-HT2C Function Emax (%) as 100

====

Entries and their log10(Ki) values follow.
Test target: human 5-hydroxytryptamine-2C (h5-HT2C) receptor (Homo sapiens)
Construct: expressed in transfected cells; host or cells: CHO (Chinese Hamster Ovary) cells; membranes
Assay: [125I]DOI binding to membranes of CHO cells expressing the human 5-HT2C receptor
Measurement setup: [125I]DOI radioligand, CHO cell membranes, room temperature 60 min; read-out: 5-HT2C Affinity Ki
// stored as log10 of Ki expressed in nM

The examples below pair each entry with its known result.
NCC1Cc2cccc(-c3ccc(Cl)cc3Cl)c2O1 (single isomer, unassigned; (+)) [Example 150]; 0.61
NCC1Cc2cc(F)cc(-c3ccc(Cl)cc3)c2O1 (racemic); 1.08
NCC1Cc2cc(C(F)(F)F)cc(-c3ccccc3F)c2O1 (racemic); 2.21
COc1cc2c(c(-c3cc(Cl)ccc3Cl)c1)OC(CN)C2 (single isomer, unassigned; (+)) [Example 368]; 0.15

For NCC1Cc2cccc(-c3ccccc3C(F)(F)F)c2O1 (single isomer, unassigned; (-)) [Example 54] the molecule record lists log10(Ki) as -0.30

For NCC1Cc2cccc(-c3ccc(Cl)cc3)c2O1 (racemic) [Example 76] the molecule record lists log10(Ki) as 0.48

For NCC1Cc2cccc(-c3cc(C(F)(F)F)cc(C(F)(F)F)c3)c2O1 (racemic) the molecule record lists log10(Ki) as 2.62

For Cc1ccccc1-c1cc(C(F)(F)F)cc2c1OC(CN)C2 (racemic) the molecule record lists log10(Ki) as 1.26

For CNCC1Cc2cc(-c3ccccc3C(F)(F)F)cc(F)c2O1 (racemic) the molecule record lists log10(Ki) as 2.61

For Cc1ccccc1-c1c(F)ccc2c1OC(CN)C2 (single isomer, unassigned; (+)) [Example 396] the molecule record lists log10(Ki) as -0.52

For CNCC1Cc2cc(F)cc(-c3ccccc3F)c2O1 (racemic) the molecule record lists log10(Ki) as 0.38

====

Test target: UniProtKB P28335
Assay: 5-HT2C receptor-stimulated calcium mobilization (FLIPR) in CHO cells
Format: cell-based
Measurement setup: calcium mobilization, CHO cells stably expressing human 5-HT2C; read-out: 5-HT2C Function EC50
Entries and their log10(EC50) values follow.
// stored as log10 of EC50 expressed in nM

CNCC1Cc2cccc(-c3cccc(OC)c3)c2O1 (racemic); 2.26
NCC1Cc2cc(Cl)cc(-c3c(Cl)cccc3Cl)c2O1 (racemic); -0.10
CNCC1Cc2cccc(-c3c(Cl)cccc3Cl)c2O1 (single isomer, unassigned; (-)) [Example 434]; 0.85
NCC1Cc2cccc(-c3ccccc3C(F)(F)F)c2O1 (single isomer, unassigned; (+)) [Example 55]; 1.68
CNCC1Cc2cc(C)cc(-c3cccc(OC)c3OC)c2O1 (single isomer, unassigned; (+)) [Example 566]; 0.48
CNCC1Cc2cccc(-c3ccc(Cl)cc3Cl)c2O1 (racemic); 0.95
CCCNCC1Cc2cc(F)cc(-c3c(Cl)cccc3Cl)c2O1 (racemic); 1.69

Please examine the following record next.
For CNCC1Cc2cc(F)cc(-c3cc(Cl)ccc3OC)c2O1 (racemic) the compound record lists log10(EC50) as 2.33

====

Test target: human 5-hydroxytryptamine-2C (h5-HT2C) receptor (Homo sapiens, UniProt P28335)
Construct: expressed in transfected cells; host or cells: CHO (Chinese Hamster Ovary) cells; membranes
Assay: [125I]DOI binding to membranes of CHO cells expressing the human 5-HT2C receptor
Measurement setup: [125I]DOI radioligand, CHO cell membranes, room temperature 60 min; read-out: 5-HT2C Affinity Ki
Quantity measured: Ki (nM)
Give the number; nM is assumed, so skip it.

The examples below pair each entry with its known result.
Cc1cccc(-c2cc(F)cc3c2OC(CN)C3)c1 (racemic); 17
NCC1Cc2cccc(-c3cccnc3)c2O1 (single isomer, unassigned; (-)) [Example 172]; 185
CNCC1Cc2cc(F)cc(-c3cc(C)ccc3OC)c2O1 (racemic); 38
CNCC1Cc2cc(C)cc(-c3ccccc3OC)c2O1 (racemic); 6.7

For NCC1Cc2cccc(-c3cccnc3)c2O1 (racemic) [Example 170] the compound record lists Ki as 3.3

For CC(C)(C)c1cc(Cl)cc2c1OC(CN)C2 (single isomer, unassigned; (-)) [Example 28] the compound record lists Ki as 16

For NCC1Cc2cccc(C3CCCC3)c2O1 (racemic) [Example 8] the compound record lists Ki as 9

For CNC[C@H]1Cc2cc(F)cc(-c3ccccc3Cl)c2O1 the compound record lists Ki as 0.14

For CNCC1Cc2cc(C)cc(-c3cccc(OC)c3OC)c2O1 (racemic) the compound record lists Ki as 0.51

====

Test target: human 5-hydroxytryptamine-2C (h5-HT2C) receptor (Homo sapiens, UniProt P28335)
Construct: expressed in transfected cells; host or cells: CHO (Chinese Hamster Ovary) cells; membranes
Sequence (P28335 33-458): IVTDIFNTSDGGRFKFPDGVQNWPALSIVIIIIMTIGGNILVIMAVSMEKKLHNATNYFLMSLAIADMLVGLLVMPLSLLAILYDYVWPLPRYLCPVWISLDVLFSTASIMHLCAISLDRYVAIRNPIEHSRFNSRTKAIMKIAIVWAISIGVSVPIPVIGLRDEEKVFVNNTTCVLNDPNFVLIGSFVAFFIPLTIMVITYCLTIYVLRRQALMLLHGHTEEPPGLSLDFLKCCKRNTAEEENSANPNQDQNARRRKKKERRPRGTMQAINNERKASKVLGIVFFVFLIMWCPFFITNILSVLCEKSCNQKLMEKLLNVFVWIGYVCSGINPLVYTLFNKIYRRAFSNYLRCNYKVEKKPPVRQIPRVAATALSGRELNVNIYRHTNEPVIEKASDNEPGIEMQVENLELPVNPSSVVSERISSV
Assay: [125I]DOI binding to membranes of CHO cells expressing the human 5-HT2C receptor
Measurement setup: reference compounds; 95% confidence interval in parentheses; [125I]DOI radioligand; read-out: Ki
Quantity measured: Ki

For CSc1ccc2c(c1)C(N1CCN(C)CC1)Cc1ccccc1S2 (stereo not shown) [Methiothepin, reference compound] the compound record lists Ki as 4.6 nM
